Reference source for all entries: ChEMBL document CHEMBL4052645

- SUBJECT OF TEST: Nuclear receptor subfamily 1 group I member 2 (Homo sapiens, UniProt O75469)
- Sequence (O75469 whole entry): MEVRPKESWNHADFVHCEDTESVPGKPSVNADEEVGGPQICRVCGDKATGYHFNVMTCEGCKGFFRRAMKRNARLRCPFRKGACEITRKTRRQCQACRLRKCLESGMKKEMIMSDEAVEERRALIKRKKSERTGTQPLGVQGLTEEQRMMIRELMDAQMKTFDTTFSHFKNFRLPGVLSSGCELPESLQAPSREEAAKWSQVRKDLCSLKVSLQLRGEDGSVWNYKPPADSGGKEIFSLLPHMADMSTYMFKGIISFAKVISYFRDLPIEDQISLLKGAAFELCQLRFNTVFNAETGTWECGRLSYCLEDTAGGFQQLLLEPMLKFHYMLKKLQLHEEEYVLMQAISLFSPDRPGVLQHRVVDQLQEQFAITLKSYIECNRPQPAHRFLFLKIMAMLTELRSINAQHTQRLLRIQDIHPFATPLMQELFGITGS
- ASSAY REMARKS: Activation of PXR (unknown origin)
pEC50: −log10 of the molar value.
EXPERIMENTAL READOUT: pEC50

Task item: Give the reported value of pEC50 for this record: "COc1ccc(-c2cc3c(N[C@@H]4CC[C@](C)(N)C4(C)C)c(C(N)=O)cnn3c2)cn1"
Reply: < 4.77

----------
- ASSAY REMARKS: Protein binding in rat plasma
- Assay type: ADME, cell-free
- TEST CONDITIONS: read-out: PPB (converted)
EXPERIMENTAL READOUT: fraction unbound
Give the figure by itself; no unit, no explanation.

Task item: Supply fraction unbound value. Item: "COc1ccc(-c2cc3c(N[C@@H]4CC[C@](C)(N)C4(C)C)c(C(N)=O)cnn3c2)cn1"
Reply: 0.12
